- experiment-notes: In vivo localization (biodistribution) in athymic female nude mice bearing intraperitoneal MCF-7 tumors
- Design: species or system athymic female NCR-Nu Mice
- condition-summary: mouse, in vivo, ip, Blood, 2 hours, tail vein, intraperitoneal MCF-7, mean, n = 5; read-out: Percent Injected Dose/Gram, blood
- Experimental: In vivo localization of 11β-ethyl-17α-(Z)-[^125 I](iodovinyl)estra-3,17β-diol (5) and a control compound 16α-[^125 I]iodovinyl-3,17β-estradiol (commercially available from DuPont New England Nuclear, MA) was determined in athymic female NCR-Nu Mice (purchased from Simonsen Laboratories, Gilroy, Calif.) bearing subcutaneous MCF-7(ER+) breast tumor xenografts. […]
experimental-readout: tissue uptake at 2 h (%ID/g)

mol-smiles | experimental-readout | numeric-readout
CC[C@H]1C[C@@]2(C)[C@@H](CC[C@@]2(O)/C=C\[125I])[C@@H]2CCc3cc(O)ccc3[C@@H]12 | tissue uptake at 2 h | 2.07
